molecular target: Androgen receptor (Homo sapiens, UniProt P10275); test: Displacement of [3H]mibolerone from full length human AR expressed in COS cells after 3.5 hrs by liquid scintillation counting
Sequence (P10275 whole entry, the tested form may be a part): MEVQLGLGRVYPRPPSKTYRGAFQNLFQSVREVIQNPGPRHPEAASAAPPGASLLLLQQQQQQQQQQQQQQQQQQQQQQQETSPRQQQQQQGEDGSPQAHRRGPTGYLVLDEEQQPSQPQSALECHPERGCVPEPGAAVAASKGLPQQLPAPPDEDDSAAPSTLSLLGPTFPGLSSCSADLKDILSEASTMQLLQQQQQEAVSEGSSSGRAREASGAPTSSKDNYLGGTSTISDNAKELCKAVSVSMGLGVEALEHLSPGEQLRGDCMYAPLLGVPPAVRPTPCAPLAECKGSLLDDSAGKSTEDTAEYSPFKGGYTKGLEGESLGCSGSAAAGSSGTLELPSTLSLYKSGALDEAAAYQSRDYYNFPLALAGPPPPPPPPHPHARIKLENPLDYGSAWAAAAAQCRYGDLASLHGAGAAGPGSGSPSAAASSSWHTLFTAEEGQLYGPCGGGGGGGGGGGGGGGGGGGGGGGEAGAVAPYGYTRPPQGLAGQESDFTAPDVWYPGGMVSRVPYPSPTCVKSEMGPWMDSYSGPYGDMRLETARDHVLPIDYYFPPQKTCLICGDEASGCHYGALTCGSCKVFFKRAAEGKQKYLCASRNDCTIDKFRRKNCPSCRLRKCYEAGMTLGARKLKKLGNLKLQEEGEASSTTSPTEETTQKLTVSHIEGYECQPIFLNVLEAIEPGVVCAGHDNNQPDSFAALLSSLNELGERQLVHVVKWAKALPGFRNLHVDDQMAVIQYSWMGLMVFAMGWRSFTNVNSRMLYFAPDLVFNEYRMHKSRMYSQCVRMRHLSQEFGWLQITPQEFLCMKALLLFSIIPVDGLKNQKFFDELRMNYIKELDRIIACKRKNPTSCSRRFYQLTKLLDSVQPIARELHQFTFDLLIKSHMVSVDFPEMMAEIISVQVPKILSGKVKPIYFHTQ
pIC50: −log10 of the molar value.
Outcome: T for pIC50 of at least 8; F for anything lower.

| line notation | category |
| --- | --- |
| COc1ccc(OC[C@](C)(O)C(=O)N2CCc3c(C#N)cccc32)cc1 | F |
| C[C@](O)(COc1ccccc1)C(=O)N1CCc2c(C#N)cccc21 | F |
| C[C@](O)(COc1ccc(Cl)cc1F)C(=O)N1CCc2c(C#N)cccc21 | T |
| C[C@](O)(COc1cccc(Cl)c1)C(=O)N1CCc2c(C#N)cccc21 | F |
| C[C@](O)(COc1ccc(-c2cocn2)cc1)C(=O)N1CCc2c(C#N)cccc21 | F |

---

test: Clearance in human liver microsomes; type: ADME; settings: read-out: CLH

| line notation | microsomal CLint |
| --- | --- |
| C[C@](O)(COc1ccc(F)cc1)C(=O)N1CCc2c(C#N)cccc21 | 21 µL/min/mg |

---

test: Toxicity in sc dosed Sprague-Dawley rat administered qd for 14 days; type: organism-based; details: in vivo
value type: MTD at 336 h (mg/kg)

| line notation | value type | unit info | endpoint result |
| --- | --- | --- | --- |
| C[C@](O)(COc1ccc(F)cc1)C(=O)N1CCc2c(C#N)cccc21 | MTD at 336 h | mg/kg | 100 |

---

assay: Oral bioavailability in Sprague-Dawley rat at 6 mg/kg; format: ADME, organism-based; conditions: in vivo

| line notation | bioavailability |
| --- | --- |
| C[C@](O)(COc1ccc(F)cc1)C(=O)N1CCc2c(C#N)cccc21 | > 100% |

---

test: Cmax in Sprague-Dawley rat at 6 mg/kg, po; assay type: ADME, organism-based; set-up: dose 6 mg/kg, route oral; conditions: in vivo
value type: Cmax (ng/mL)

| line notation | endpoint result |
| --- | --- |
| C[C@](O)(COc1ccc(F)cc1)C(=O)N1CCc2c(C#N)cccc21 | 254 |

---

experiment: AUC in Sprague-Dawley rat at 6 mg/kg, po; type: ADME, organism-based; parameters: dose 6 mg/kg, route oral; details: plasma

| line notation | unit info | AUC |
| --- | --- | --- |
| C[C@](O)(COc1ccc(F)cc1)C(=O)N1CCc2c(C#N)cccc21 | ng·h/mL | 3750 |

---

assay: Cmax in Sprague-Dawley rat at 10 mg/kg, sc; assay type: ADME, organism-based; set-up: dose 10 mg/kg, route subcutaneous; conditions: in vivo

| line notation | Cmax (ng/mL) |
| --- | --- |
| C[C@](O)(COc1ccc(F)cc1)C(=O)N1CCc2c(C#N)cccc21 | 166 |

---

molecular target: Androgen receptor (Homo sapiens, UniProt P10275); assay: Binding affinity to human AR NTD (1 to 561 aa) expressed in CV1 cells coexpressing human AR-LBD (644-919 aa) assessed as N/C-termini interaction by androgenic assay; type: cell-based, CV-1
pEC50: −log10 of the molar value.
Outcome: criterion met for pEC50 of at least 7; criterion not met for anything lower.

| line notation | category |
| --- | --- |
| C[C@](O)(COc1ccc(F)cc1Br)C(=O)N1CCc2c(C#N)cccc21 | criterion met |
| C[C@](O)(COc1ccc(C#N)cc1F)C(=O)N1CCc2c(C#N)cccc21 | criterion met |
| C[C@](O)(COc1ccc(Cl)cc1F)C(=O)N1CCc2c(C#N)cccc21 | criterion met |
| C[C@](O)(COc1cccc(F)c1)C(=O)N1CCc2c(C#N)cccc21 | criterion not met |
